# SYSTEM NAME: Gcr1 (UniProt P07261)
# Sequence: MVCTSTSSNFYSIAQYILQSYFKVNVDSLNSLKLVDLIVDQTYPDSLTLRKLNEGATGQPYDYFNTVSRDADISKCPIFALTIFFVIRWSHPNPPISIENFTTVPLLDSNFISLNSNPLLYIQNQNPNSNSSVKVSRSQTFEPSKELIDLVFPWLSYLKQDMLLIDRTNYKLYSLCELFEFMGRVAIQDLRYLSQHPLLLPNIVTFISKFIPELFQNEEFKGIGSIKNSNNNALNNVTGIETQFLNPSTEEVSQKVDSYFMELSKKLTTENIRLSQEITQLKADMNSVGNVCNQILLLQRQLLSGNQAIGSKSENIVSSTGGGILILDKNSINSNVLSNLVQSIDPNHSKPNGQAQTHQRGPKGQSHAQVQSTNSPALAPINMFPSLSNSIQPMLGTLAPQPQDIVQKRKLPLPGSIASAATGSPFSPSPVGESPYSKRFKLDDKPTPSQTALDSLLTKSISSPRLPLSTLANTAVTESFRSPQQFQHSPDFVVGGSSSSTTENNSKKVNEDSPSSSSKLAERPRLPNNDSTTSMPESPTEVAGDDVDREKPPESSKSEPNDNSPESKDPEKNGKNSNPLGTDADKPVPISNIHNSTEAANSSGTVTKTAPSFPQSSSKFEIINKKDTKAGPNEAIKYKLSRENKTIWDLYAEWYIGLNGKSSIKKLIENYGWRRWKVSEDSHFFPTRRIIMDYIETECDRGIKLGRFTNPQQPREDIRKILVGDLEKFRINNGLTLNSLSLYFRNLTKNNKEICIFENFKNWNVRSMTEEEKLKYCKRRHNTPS
# ASSAY NOTES: PBM E-score (8-mer binding enrichment) (E-score (-0.5 to 0.5)); higher = stronger / more preferred TF binding
# CONDITION LABEL: protein concentration: 100 nM; construct: GST-full length
Over roughly 33,000 sequences, “E-score (-0.5 to 0.5)” has its median near -0.011; the highest 2% begin near 0.28. This excerpt belongs to a sample that is enriched for the highest values.
TRUE means recorded PBM E-score is 0.3 or above; FALSE means it is below 0.3.

Decide: PBM E-score of "AGGGTGCC" >= 0.3?
TRUE

Further cases:
Decide: PBM E-score of "CGTTCCCA" >= 0.3?
FALSE

What do you get for "GGTTCCTA" ?
TRUE

What do you get for "CGTTCCTA" ?
FALSE

What do you get for "ATGGTGCC" ?
FALSE

What do you get for "AGTTCCTA" ?
FALSE

What do you get for "GGTTCCCA" ?
TRUE

What do you get for "AGGGTGCA" ?
FALSE

What do you get for "CGGGTGCA" ?
FALSE

What do you get for "GGTTCCAA" ?
TRUE

What do you get for "CGGGTGCC" ?
TRUE
